The following compounds each carry a recorded IC50 for PIM-1 (Homo sapiens (Human), UniProt P11309).
Observed property: IC50 (nM)

[[record]]
compound = "CSc1ncc2c(n1)-c1c(c(C(N)=O)cn1C(C)C)CC2"
observed_property = "IC50"
qualifying_sign = "="
reported_result = 16

[[record]]
compound = "Cn1cc(C(N)=O)c2c1-c1nc(N)ncc1CC2 [Ref. cmpound 1, reference compound]"
observed_property = "IC50"
qualifying_sign = ">"
reported_result = 10000

[[record]]
compound = "CSc1ncc2ccc3c(C(N)=O)c(C)n(C(C)C)c3c2n1"
observed_property = "IC50"
qualifying_sign = "="
reported_result = 4

[[record]]
compound = "CCc1cccc(CC)c1NC(=O)c1cn(C)c2c1CCCc1cnc(Nc3ccc(N4CCN(C)CC4)cc3OC)nc1-2"
observed_property = "IC50"
qualifying_sign = ">"
reported_result = 10000

[[record]]
compound = "CSc1ncc2ccc3c(C(N)=O)c(C)n(CCO)c3c2n1"
observed_property = "IC50"
qualifying_sign = "="
reported_result = 87

